assay: qHTS assay to identify small molecule antagonists of the constitutive androstane receptor (CAR) signaling pathway - cell viability counter screen (AID 1224837); conditions: HepG2-CYP2B6-hCAR viability, CellTiter-Fluor, 23 h, co-treated with 50 nM CITCO; series mostly up to 92.4 µM; further: nearly all actives have a fitted effect of over 45% in size
Records with an inconclusive call do not appear. Activity calls are given as the source filed them. The call rests on the fitted dose curve; in most records, active means well fitted cell-killing curve with a large enough effect in the repeat runs; inconclusive means weak or mixed curves, or effect the other way; inactive means flat fitted curve, though single readings scatter.
Possible outcomes: active, inactive

INSERT INTO measurements (compound, class) VALUES
  ('O=C1C(=O)c2cccc3cccc1c23', 'inactive'),
  ('c1ccoc1', 'inactive'),
  ('CCOc1nc(F)cc2nc(S(=O)(=O)Nc3c(Cl)cccc3Cl)nn12', 'inactive'),
  ('C[C@H]1CNCCc2ccc(Cl)cc21', 'inactive'),
  ('CC(Cl)Cl', 'inactive'),
  ('Clc1cccc(SC2CCNCC2)n1', 'inactive'),
  ('CCCCCCCCCC(=O)O[C@H]1CC[C@H]2[C@@H]3CCC4=CC(=O)CC[C@@H]4[C@H]3CC[C@]12C', 'inactive'),
  ('O=S(=O)(O)C(F)(F)C(F)(F)C(F)(F)C(F)(F)F', 'inactive'),
  ('COC(C)(C)CCC[C@H](C)C/C=C/C(C)=C/C(=O)OC(C)C', 'inactive'),
  ('CCCCC(O)(Cn1cncn1)c1ccc(Cl)cc1Cl (stereo unspecified)', 'active'),
  ('CC(C)(C)C(O)C(Oc1ccc(Cl)cc1)n1cncn1 (stereo unspecified)', 'inactive');

====

assay: qHTS RealTime-Glo MT Cell Viability Assay in HepG2 cells - 0 hour (AID 1224889); conditions: RealTime-Glo luminescence; series mostly up to 76.8 µM; further: nearly all actives have a fitted effect of over 50% in size
Records with an inconclusive call do not appear. The source made the active and inactive calls. Calls come from the whole dose curve; as a rule, active = well fitted cell-killing curve with a large enough effect in the repeat runs; inconclusive = weak or mixed curves, or effect the other way; inactive = flat fitted curve, though single readings scatter.
Labels: active, inactive

INSERT INTO results (compound, class) VALUES
  ('O=S1(=O)OC(c2cc(Br)c(O)c(Br)c2)(c2cc(Br)c(O)c(Br)c2)c2ccccc21', 'active'),
  ('CC(C)(Cl)[N+](=O)[O-]', 'active'),
  ('CCOC(=O)[C@]1(c2ccccc2)Oc2ccccc2[C@@H]1N', 'inactive'),
  ('C=C(C#N)CCC#N', 'inactive'),
  ('Brc1ccc(Oc2ccccc2)cc1', 'inactive'),
  ('CC1Sc2c(C(=O)O)c(=O)c3cc(F)c(N4CCNCC4)cc3n21 (stereo not given)', 'inactive'),
  ('CCO[C@H]1O[C@@H]2OC3(C)CC[C@H]4[C@H](C)CC[C@@H]([C@H]1C)[C@@]24OO3', 'inactive'),
  ('C[N+](C)(C)CCCl', 'inactive'),
  ('CC(=O)[C@H]1CC[C@H]2[C@@H]3CC[C@H]4C[C@](C)(O)CC[C@]4(C)[C@H]3CC[C@]12C', 'inactive'),
  ('O=C(CBr)Nc1ccc(Cl)cc1C(=O)c1ccccc1F', 'inactive'),
  ('CO/N=C(/C(=O)OC)c1ccccc1COc1ccccc1C', 'inactive'),
  ('CCCCC(O)(Cn1cncn1)c1ccc(Cl)cc1Cl (stereo not given)', 'active'),
  ('CCCC(=O)Cl', 'inactive'),
  ('CN(N=O)c1ccc([N+](=O)[O-])cc1', 'inactive'),
  ('ClCC(Br)CBr (stereo not given)', 'inactive');

====

assay: qHTS assay for small molecule agonists of the p53 signaling pathway - cell viability (AID 651633); details: p53RE-bla HCT-116 viability, ATP luminescence, 16 h; series mostly up to 83.3 µM; further: nearly all actives have a fitted effect of over 30% in size
Results filed as inconclusive are left out. Calls of active or inactive are those of the source. Calls come from the whole dose curve.
Outcomes: active, inactive

INSERT INTO measurements (compound, class) VALUES
  ('CCCCCCCCOC(=O)c1ccc(C(=O)OCCCCCCCC)c(C(=O)OCCCCCCCC)c1', 'inactive'),
  ('CS/C(C)=N/OC(=O)N(C)SN(C)C(=O)O/N=C(\C)SC', 'inactive'),
  ('II', 'inactive'),
  ('COc1nn(C(=O)NS(=O)(=O)c2ccccc2OC(F)(F)F)c(=O)n1C', 'inactive'),
  ('CCCC(Cn1cncn1)c1ccc(Cl)cc1Cl (stereo not drawn)', 'inactive'),
  ('O=C(NCc1cccnc1)Nc1ccc([N+](=O)[O-])cc1', 'inactive'),
  ('CCOP(=S)(OCC)SCn1nnc2ccccc2c1=O', 'active'),
  ('CN1C(=O)NC(=O)C(C)(C2=CCCCC2)C1=O (stereo not drawn)', 'inactive'),
  ('BrCCCCBr', 'inactive'),
  ('COc1nn(CSP(=S)(OC)OC)c(=O)s1', 'inactive'),
  ('CCOC(=O)[C@]1(c2ccccc2)Oc2ccccc2[C@@H]1N', 'inactive'),
  ('CC(O)(CS(=O)(=O)c1ccc(F)cc1)C(=O)Nc1ccc(C#N)c(C(F)(F)F)c1 (stereo not drawn)', 'inactive'),
  ('O=Cc1ccc2c(c1)OCO2', 'inactive');

====

experiment: qHTS RealTime-Glo MT Cell Viability Assay in HEK293 cells - 40 hour (AID 1224874); conditions: RealTime-Glo luminescence; hits give low values; further: on the % scale 0 is the no-effect control and ±100 the full control effect; nearly all actives have a fitted effect of over 50% in size
Results filed as inconclusive are left out.
MEASUREMENT_TYPE: max response (%)

INSERT INTO measurements (compound, measurement_type, observed) VALUES
  ('C=CC(=O)OCC(C)C', 'max response', 15.8),
  ('CCCCCCC#N', 'max response', 1.28),
  ('O=C(C(Cl)(Cl)Cl)C(Cl)(Cl)Cl', 'max response', -7.45),
  ('Cn1sc(Cl)cc1=O', 'max response', -14),
  ('N#CCC#N', 'max response', -1.97),
  ('COC(=O)c1cncn1C(C)c1ccccc1 (stereo unspecified)', 'max response', 1.22),
  ('CCCCCCCCCC(=O)O[C@H]1CC[C@H]2[C@@H]3CCC4=CC(=O)CC[C@@H]4[C@H]3CC[C@]12C', 'max response', 3.16),
  ('Cc1ccccc1CCl', 'max response', -6.69),
  ('Cl/C=C\Cl', 'max response', 0.558),
  ('Brc1ccccc1', 'max response', -2.8),
  ('COC1=CC(=O)O[C@@H](CCc2ccccc2)C1', 'max response', -25.1),
  ('CN(N=O)c1ccc([N+](=O)[O-])cc1', 'max response', -1.54),
  ('O=C1c2ccccc2C(=O)C1C(=O)C(c1ccccc1)c1ccccc1', 'max response', 3.22),
  ('Cc1c(F)c(F)c(COC(=O)C2C(/C=C(\Cl)C(F)(F)F)C2(C)C)c(F)c1F (stereo unspecified)', 'max response', 6.54),
  ('COc1cc(Cl)c(OC)cc1Cl', 'max response', 1.87),
  ('CC(C)(Cl)[N+](=O)[O-]', 'max response', 2.49),
  ('CC1Sc2c(C(=O)O)c(=O)c3cc(F)c(N4CCNCC4)cc3n21 (stereo unspecified)', 'max response', 1.01),
  ('O=C(OC1CCCCC1)c1ccccc1C(=O)OC1CCCCC1', 'max response', -29.8),
  ('O=Cc1ccc2c(c1)OCO2', 'max response', 0.0881),
  ('COC(=O)C(Cl)C(=O)OC', 'max response', -20.1),
  ('C=CCN1CC[C@]23c4c5ccc(O)c4O[C@H]2C(=O)CC[C@@]3(O)[C@H]1C5', 'max response', -0.323),
  ('Nc1ccc(N=Nc2ccc(-c3ccc(N=Nc4c(S(=O)(=O)O)cc5cc(S(=O)(=O)O)c(N=Nc6ccccc6)c(O)c5c4N)cc3)cc2)c(N)c1', 'max response', 23.2),
  ('CNC(C)Cc1ccccc1OC (stereo unspecified)', 'max response', 1.99),
  ('N#Cc1ccc(Cl)cc1', 'max response', 2.27),
  ('C[N+](C)(C)CCCl', 'max response', 21.2),
  ('CCOP(O)OCC', 'max response', 0.744),
  ('c1cc2ccc3cccc4ccc(c1)c2c34', 'max response', -0.186),
  ('COc1nn(C(=O)NS(=O)(=O)c2ccccc2OC(F)(F)F)c(=O)n1C', 'max response', 12.6),
  ('CCOC(=O)C(Cl)C(C)=O (stereo unspecified)', 'max response', -9.27),
  ('Clc1cccc2ccccc12', 'max response', -5.43),
  ('O=S(=O)(Cl)c1ccccc1', 'max response', 11.8),
  ('CCO[C@H]1O[C@@H]2OC3(C)CC[C@H]4[C@H](C)CC[C@@H]([C@H]1C)[C@@]24OO3', 'max response', -21.5),
  ('O=C(O)COc1ccc(Cl)cc1', 'max response', 0.692),
  ('O=C(O)C(F)(F)C(F)(F)C(F)(F)C(F)(F)C(F)(F)C(F)(F)C(F)(F)C(F)(F)C(F)(F)F', 'max response', 1.42),
  ('C=CC(=O)OCCCCO', 'max response', 18.2),
  ('CCBr', 'max response', 6.85),
  ('CCOP(=S)(OCC)Oc1cc(Cl)c(Br)cc1Cl', 'max response', -15.7),
  ('CCCCCC[N+](=O)[O-]', 'max response', 4.3),
  ('C=CCOC(C)=O', 'max response', -6.55),
  ('Cn1cc[n+](C)c1 (tested in a mixture with another compound)', 'max response', 6.73),
  ('CN1C(=O)NC(=O)C(C)(C2=CCCCC2)C1=O (stereo unspecified)', 'max response', 11.8),
  ('CC(C)(CCl)C(=O)Cl', 'max response', 0.815),
  ('NS(=O)(=O)C(F)(F)C(F)(F)C(F)(F)C(F)(F)C(F)(F)C(F)(F)C(F)(F)C(F)(F)F', 'max response', -4.36),
  ('BrCC(Br)C1CCC(Br)C(Br)C1 (stereo unspecified)', 'max response', -20.5),
  ('CC(=O)[C@H]1CC[C@H]2[C@@H]3CC[C@H]4C[C@](C)(O)CC[C@]4(C)[C@H]3CC[C@]12C', 'max response', -9.18),
  ('NC(=O)CI', 'max response', 1.19),
  ('BrCCCCBr', 'max response', 17.9),
  ('CC/C(=N\OC/C=C/Cl)C1=C(O)CC(C2CCOCC2)CC1=O (stereo unspecified)', 'max response', 0.456),
  ('CO[C@@H]1[C@H](OC(=O)NC(=O)CCl)CC[C@]2(CO2)[C@H]1[C@@]1(C)O[C@@H]1CC=C(C)C', 'max response', 1.55),
  ('CCCCNP(N)(N)=S', 'max response', 0.198),
  ('CCc1ccc(C(=O)NN(C(=O)c2cc(C)cc(C)c2)C(C)(C)C)cc1', 'max response', -11.5);

Where do the numbers come from? From PubChem BioAssay (Tox21).
